- Test system: K-562 leukemia
- test.details: NCI tumour cell line growth inhibition, 48 h; in the data active means GI50 below about 0.43 µM; inactive means the rest
The categories you may choose from are active, inactive

Query: Identify the outcome logged in this assay for the compound shown: COc1cc(C#Cc2ccc(=O)oc2C#Cc2ccccc2)cc(OC)c1OC
Reply: inactive

Query: Now consider Cc1cc(S(=O)(=O)Nc2nc3cscc3c(=O)n2Cc2ccccc2)c(S)cc1Cl and answer again.
Reply: inactive

Query: Now consider O=C(Nc1cccc(-n2ccc3c(NC(=O)c4ccccc4)nccc32)c1)Nc1cc(C(F)(F)F)cc(C(F)(F)F)c1 and answer again.
Reply: inactive

Query: Now consider CNC(=O)c1ccc(N2CCN(Cc3ccc4nc(C)c(=O)[nH]c4c3F)CC2)c(F)n1 and answer again.
Reply: inactive

Query: Now consider CO[C@H]1/C=C/O[C@@]2(C)Oc3c(C)c(O)c4c(c3C2=O)C(=O)C(/C=N/N(c2ccccc2)c2ccccc2)=C(NC(=O)/C(C)=C\C=C\[C@H](C)[C@H](O)[C@@H](C)[C@@H](O)[C@@H](C)[C@H](OC(C)=O)[C@@H]1C)C4=O and answer again.
Reply: inactive

Query: Now consider O=S(=O)(Nc1ccccc1Cl)c1ccc(-c2cnc(C3CC3)o2)cc1 and answer again.
Reply: active

Query: Now consider Cc1ccc(C)c2c1C(O)(C#Cc1ccccc1)c1ccccc1C2(O)C#Cc1ccccc1 (centres undefined) and answer again.
Reply: inactive

Query: Now consider Fc1ccc2[nH]cc(-c3nonc3-c3c[nH]c4ccc(Br)cc34)c2c1 and answer again.
Reply: inactive

Query: Now consider CC[N+](CC)=c1sc2c(s1)C(c1ccc(Cl)cc1)Oc1ccc(Cl)cc1-2 (centres undefined) and answer again.
Reply: inactive

Query: Now consider CC(C)(C)C(=O)c1c(C(F)(F)F)n([O-])c2ccccc2[n+]1=O and answer again.
Reply: inactive

Query: Now consider Cc1ccc(-c2csc(/N=C3\C(=O)Nc4ccccc43)n2)cc1 and answer again.
Reply: inactive

Query: Now consider CCOc1ccc2nc(SCc3nc4n(n3)S(=O)(=O)c3ccccc3N4C)sc2c1 and answer again.
Reply: inactive

Query: Now consider COC(=O)CCc1c[nH]c2ccc(N(CCCl)CCCl)cc12 and answer again.
Reply: inactive

Query: Now consider CCC[CH2][Sn]1([CH2]CCC)[O]CC(Cc2ccccc2)[O]1 (centres undefined) and answer again.
Reply: inactive

====

- Tested on: OVCAR-3 ovarian
- test.details: NCI tumour cell line growth inhibition, 48 h
I'd appreciate it if you could supply TGI values for the items below.
Enter your answer as a number in µM; do not include the unit.

Query: What does the data say about its TGI? Entry: O=C(Nc1cccc(-n2ccc3c(NC(=O)c4ccccc4)nccc32)c1)Nc1cc(C(F)(F)F)cc(C(F)(F)F)c1
Reply: 3.18

Query: Now consider COC(=O)CCc1c[nH]c2ccc(N(CCCl)CCCl)cc12 and answer again.
Reply: 49.6

Query: Now consider C#CCOc1cccc(-c2ncnc3cc(NC(=O)CCl)ccc23)c1 and answer again.
Reply: 2.07

Query: Now consider COc1cc(C#Cc2ccc(=O)oc2C#Cc2ccccc2)cc(OC)c1OC and answer again.
Reply: 3.58

Query: Now consider Cc1ccc(S(=O)(=O)NC(=O)C2C(=O)CC3(CCCCC3)CC2=O)cc1 and answer again.
Reply: 92.2

Query: Now consider CC(=O)[CH-]C(C)=O.CC(=O)[CH-]C(C)=O.[CH2-]CCC.[CH2-]CCC.[Sn+4] and answer again.
Reply: 1.96

Query: Now consider COC(=O)CCC(=O)NC1=C(Nc2ccc(OC)cc2)C(=O)c2ccccc2C1=O and answer again.
Reply: 12.6

Query: Now consider CO[C@H]1/C=C/O[C@@]2(C)Oc3c(C)c(O)c4c(c3C2=O)C(=O)C(/C=N/N(c2ccccc2)c2ccccc2)=C(NC(=O)/C(C)=C\C=C\[C@H](C)[C@H](O)[C@@H](C)[C@@H](O)[C@@H](C)[C@H](OC(C)=O)[C@@H]1C)C4=O and answer again.
Reply: 3.34

Query: Now consider Cc1ccc(-c2csc(/N=C3\C(=O)Nc4ccccc43)n2)cc1 and answer again.
Reply: 4.89

Query: Now consider C#Cc1cccc(N2C(=O)CCC2=O)c1 and answer again.
Reply: 37.3

Query: Now consider COc1cc(NC(N)=NCCC(C)(C)Oc2ccc(C(F)(F)F)cc2)ncc1C#N and answer again.
Reply: 3.17

Query: Now consider CN(C)c1ccc(C(=C(c2ccc(N(C)C)cc2)c2ccc(N(C)C)cc2)c2ccc(N(C)C)cc2)cc1 and answer again.
Reply: 2.97

Query: Now consider Cc1cnc2sn(-c3ccc(Oc4ccccc4)cc3)c(=O)c2c1 and answer again.
Reply: 23.3

Query: Now consider COC(=O)[C@]1(c2cc3ccccc3n2S(=O)(=O)c2ccccc2)CC2CN(C(C)=O)C1CC2=O (stereo not given in full) and answer again.
Reply: 6.03

Query: Now consider COc1ccc2c(C)cc(N/N=C/c3ccc(OC)c4ccccc34)nc2c1 and answer again.
Reply: 9.02

Query: Now consider Cc1cccc2c(=O)c([Se]c3coc4c(C)cccc4c3=O)coc12 and answer again.
Reply: 65.6

====

- System: PC-3 prostate
- test.details: NCI tumour cell line growth inhibition, 48 h; in the data active means GI50 below about 0.43 µM; inactive means the rest
The categories you may choose from are t = active, f = inactive

Query: Identify the outcome logged in this assay for the compound shown: Cn1cc(C2=C(c3cn(CCCCN)c4ccccc34)C(=O)NC2=O)c2ccccc21
Reply: f

Query: Now consider CCOC(=O)c1sc(-c2ccc(OS(=O)(=O)c3ccc(Br)s3)c(C=O)c2)nc1C and answer again.
Reply: f

Query: Now consider O=C(Nc1cccc(-n2ccc3c(NC(=O)c4ccccc4)nccc32)c1)Nc1cc(C(F)(F)F)cc(C(F)(F)F)c1 and answer again.
Reply: f

Query: Now consider C=C1C(O)C2C(=C(CCc3ccccc3)C13CC3)C(=O)C(C)(CO)C2O (stereo not given) and answer again.
Reply: f

Query: Now consider CN[C@H]1C=C[C@@H]2/C=C(C)/C=C/[C@@H](C)[C@H]([C@H](C)[C@H](O)[C@@H](C)NC(C)=O)OC(=O)/C=C/C=C(C)\C=C\[C@]2(C)C1 and answer again.
Reply: t

Query: Now consider OCc1ccc(-c2ccc(-c3ccc(CO)o3)[se]2)o1 and answer again.
Reply: f

Query: Now consider COC(=O)[C@@H](C)C[C@H](Cc1ccccc1)NC(=O)c1csc(CC[C@H](C(C)C)N(C)C(=O)[C@@H](NC(=O)[C@H]2CCCCN2C)C(C)C)n1 and answer again.
Reply: t

Query: Now consider COc1cc(NC(N)=NCCC(C)(C)Oc2ccc(C(F)(F)F)cc2)ncc1C#N and answer again.
Reply: f

Query: Now consider [Cl][Hg][Cl] and answer again.
Reply: f

Query: Now consider O=C(CO[N+](=O)[O-])Nc1ccc(C(=O)/C=C/c2ccc(Cl)cc2)cc1 and answer again.
Reply: f

Query: Now consider C=C1C(=O)O[C@H]2C[C@@H]1CC/C(C)=C/CC/C(C)=C/CC[C@H]2C and answer again.
Reply: f

Query: Now consider Fc1ccc2[nH]cc(-c3nonc3-c3c[nH]c4ccc(Br)cc34)c2c1 and answer again.
Reply: f

Query: Now consider CC[N+](CC)=c1sc2c(s1)C(c1ccc(Cl)cc1)Oc1ccc(Cl)cc1-2 (stereo not given) and answer again.
Reply: f

Query: Now consider Cc1ccc(-c2csc(/N=C3\C(=O)Nc4ccccc43)n2)cc1 and answer again.
Reply: f

Query: Now consider Cc1cc(S(=O)(=O)Nc2nc3cscc3c(=O)n2Cc2ccccc2)c(S)cc1Cl and answer again.
Reply: f

====

- System: EKVX NSCLC
- test.details: NCI tumour cell line growth inhibition, 48 h
measured.property: TGI

Query: What does the data say about its TGI? Entry: COc1ccc(S(=O)(=O)Nc2ccccc2C(=O)O)cc1
Reply: > 100 µM

Query: Now consider CC(C)/C(Cl)=N\OC(=O)Nc1ccccc1F and answer again.
Reply: 30.7 µM

Query: Now consider COc1ccc(-c2cc(=O)c3cc4c(cc3[nH]2)OCO4)cc1OC and answer again.
Reply: > 100 µM

Query: Now consider CCCNNC(=O)/C=C/c1ccc(CNCCc2c(C)[nH]c3ccccc23)cc1 and answer again.
Reply: 3.73 µM

Query: Now consider CCCN(CCCC(NC(C)=O)C(=O)NCc1ccccc1)C(=O)N(CCCl)N=O (stereo unspecified) and answer again.
Reply: 59 µM

Query: Now consider O=C(c1ccc(Cl)cc1)c1ccc(OCCCOc2ccc(C(=O)c3ccc(Cl)cc3)cc2)cc1 and answer again.
Reply: > 100 µM

Query: Now consider CC(C)OP(=O)(OC(C)C)/C(I)=N/Nc1ccc([N+](=O)[O-])cc1 and answer again.
Reply: > 100 µM

Query: Now consider COc1cc(-c2cc3ncccc3c3nc(N)c4cccnc4c23)cc(OC)c1OC and answer again.
Reply: 50.4 µM

Query: Now consider Cc1cc(=O)oc2cc(OC(=O)N(C)C)c(Cl)cc12 and answer again.
Reply: > 100 µM

Query: Now consider Nc1nc(SCc2ccc([N+](=O)[O-])cc2)nc2c1ncn2C1OC(COP(=O)(O)O)C(O)C1O (stereo unspecified) and answer again.
Reply: > 100 µM

Query: Now consider O=C(NCCC1([N+](=O)[O-])CCN(C(=O)c2ccccc2)CC1)c1ccccc1 and answer again.
Reply: > 100 µM

Query: Now consider COC(=O)N(C(=O)OC)C(C(=O)O)C(C)C (stereo unspecified) and answer again.
Reply: > 100 µM

Query: Now consider COc1ccc2c(c1)C(=O)c1c-2n(CCCN=[N+]=[N-])c(=O)c2cc(OC)c(OC)cc12 and answer again.
Reply: > 100 µM

Query: Now consider CC[C@H](O)[C@H](C)C=C1SCCCS1 and answer again.
Reply: > 100 µM

Query: Now consider [N-]=[N+]=C1N=CN=C1c1ncn[nH]1 and answer again.
Reply: > 100 µM

Query: Now consider CC(=O)[C@@]1(C)CC2(CCN(C)CC2)OC1C (stereo partly specified) and answer again.
Reply: > 100 µM

Query: Now consider CCc1cccc(C)c1NC(=O)c1sc2nc3c(cc2c1N)CCCCC3 and answer again.
Reply: > 100 µM

Query: Now consider O=CN1CCN(C(=O)c2ccc(Cl)cc2Cl)C1=S and answer again.
Reply: > 100 µM

Query: Now consider C=C1C(=O)O[C@@H]2C[C@@H](C)[C@@H]3C=CC(=O)[C@@]3(C)[C@@H](OC(=O)CC(=O)O[C@H]3[C@@H]4C(=C)C(=O)O[C@@H]4C[C@@H](C)[C@@H]4C=CC(=O)[C@]43C)[C@H]12 and answer again.
Reply: 0.32 µM

Query: Now consider N#CC1=C(N)n2c(s/c(=C\c3ccc(Cl)cc3)c2=O)=C(c2nc3ccccc3[nH]2)C1c1ccc(Cl)cc1 (stereo unspecified) and answer again.
Reply: 3.52 µM

Query: Now consider Oc1[nH]c2ccccc2c1N=Nc1ccccn1 and answer again.
Reply: > 100 µM

Query: Now consider COc1cc2c(c(OC)c1OC)-c1ccc(SC)c(=O)cc1[C@@H](NCc1ccc(C#N)cc1)CC2 and answer again.
Reply: > 100 µM

Query: Now consider O=C(O)CCCCCCC[C@H]1S[C@H]1CCCCCCO and answer again.
Reply: > 100 µM

Query: Now consider O=C(O)c1cc2ccccc2c(N=Nc2ccc(S(=O)(=O)Nc3nccs3)cc2)c1O and answer again.
Reply: > 100 µM

Query: Now consider BrCCCCCOc1ccc(-c2c3ccccc3c(-c3ccc(OCCCCCBr)cc3)c3ccccc23)cc1 and answer again.
Reply: > 100 µM

Query: Now consider Cc1cnc2sn(-c3ccc(Oc4ccccc4)cc3)c(=O)c2c1 and answer again.
Reply: 27.7 µM

Query: Now consider COC(=O)C1C/C(=C/N(C)C)C(=S)N1 (stereo unspecified) and answer again.
Reply: > 100 µM

Query: Now consider O=C1Nc2ccccc2C12CCNC2Cc1ccccc1 (stereo unspecified) and answer again.
Reply: > 100 µM

Query: Now consider CC(C)(C)C(=O)c1c(C(F)(F)F)n([O-])c2ccccc2[n+]1=O and answer again.
Reply: 2.3 µM

Query: Now consider COc1ccc2nc3c([N+](=O)[O-])ccc4c3c(c2c1)NCCN4CCO and answer again.
Reply: 2.97 µM

Query: Now consider CC(C)CC(NC(=O)c1cccc(O)c1O)C(=O)NCc1cc(CNC(=O)C(CC(C)C)NC(=O)c2cccc(O)c2O)cc(CNC(=O)C(CC(C)C)NC(=O)c2cccc(O)c2O)c1 (stereo unspecified) and answer again.
Reply: 69.5 µM

Query: Now consider FC(F)c1nc2ccccc2n1-c1nc(N2CCOCC2)nc(N2CCOCC2)n1 and answer again.
Reply: 4.88 µM

Query: Now consider CCCCc1ccc(Nc2nc3c(ncn3C3CC(O)C(CN=[N+]=[N-])O3)c(=O)[nH]2)cc1 (stereo unspecified) and answer again.
Reply: > 100 µM

Query: Now consider CC1CCC2(CC1)NN=c1s/c(=C\c3ccc(O)cc3)c(=O)n1N2 (stereo unspecified) and answer again.
Reply: > 100 µM

Query: Now consider Nn1c(COc2cccc(OCc3n[nH]c(=S)n3N)c2)n[nH]c1=S and answer again.
Reply: > 100 µM

Query: Now consider COC(=O)CCc1c[nH]c2ccc(N(CCCl)CCCl)cc12 and answer again.
Reply: > 77.7 µM

Query: Now consider CCCSc1ccc2[nH]c(N3C(=O)/C(=C/c4ccco4)N=C3c3ccccc3)cc2c1 and answer again.
Reply: > 50 µM

Query: Now consider Cc1nc(Nc2ccc(Cl)cc2)sc1C(=O)NNc1ccc([N+](=O)[O-])cc1[N+](=O)[O-] and answer again.
Reply: 32.6 µM

Query: Now consider O=C1c2ccccc2C(Br)(Br)c2ccccc21 and answer again.
Reply: > 100 µM

Query: Now consider C=C(COC(C)=O)CC(OC(C)=O)c1ccccc1 (stereo unspecified) and answer again.
Reply: > 100 µM

Query: Now consider COC(=O)NCCc1[nH]nc2c1C(=O)C=C(N1CCOCC1)C2=O and answer again.
Reply: > 100 µM
